Target: human mAChR M1 (Homo sapiens, UniProt P11229)
Assay: mAChR M1 cell-based functional assay (calcium mobilization, Fluo-4, FDSS)
Details: CHO-K1 cells stably expressing hM1; positive allosteric modulator activity as increase in the EC20 acetylcholine response
REPORTED_METRIC: EC50 (µM)

1. O=C(NC1CCOCC1)c1cc(Cc2ccc(-n3cccn3)cc2)c2ccsc2n1 [Compound 71]; 0.14

(1) Cn1ccc(-c2ccc(Cc3cc(C(=O)N[C@H]4CCCC[C@@H]4O)nc4sccc34)cn2)n1 [Compound 101]
(2) Cn1cc(-c2ccc(Cc3cc(C(=O)N[C@H]4CCCC[C@@H]4O)nc4sccc34)cn2)cn1 [Compound 113]
(3) Cn1ccc(-c2ccc(Cc3cc(C(=O)NC4CCOCC4)nc4sccc34)cn2)n1 [Compound 102]
Qu. Returns the items ordered by EC50, from maximum to minimum. Provide the labels, sequenced as the question asks.
Ans. 1, 2, 3
(1: 2.66 µM, 2: 0.81 µM, 3: 0.02 µM)

----------
Molecular target: UniProt:P11229
Sequence (P11229 1-460): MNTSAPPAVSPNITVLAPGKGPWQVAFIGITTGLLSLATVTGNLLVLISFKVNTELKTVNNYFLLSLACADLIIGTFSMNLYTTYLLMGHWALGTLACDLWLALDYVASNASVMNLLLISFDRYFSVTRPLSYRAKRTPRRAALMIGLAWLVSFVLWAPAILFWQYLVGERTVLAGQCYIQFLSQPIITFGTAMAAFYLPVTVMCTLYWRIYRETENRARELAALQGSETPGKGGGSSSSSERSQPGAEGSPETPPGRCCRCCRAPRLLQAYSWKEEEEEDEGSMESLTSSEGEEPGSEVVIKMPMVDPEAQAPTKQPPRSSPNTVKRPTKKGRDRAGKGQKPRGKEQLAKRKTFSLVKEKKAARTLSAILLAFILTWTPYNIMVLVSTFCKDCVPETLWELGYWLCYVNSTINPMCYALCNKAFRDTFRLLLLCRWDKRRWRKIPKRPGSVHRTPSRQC
Assay: mAChR M1 cell-based functional assay (calcium mobilization, Fluo-4, FDSS)
Details: CHO-K1 cells stably expressing hM1; positive allosteric modulator activity as increase in the EC20 acetylcholine response
pEC50: −log10 of the molar value.
REPORTED_METRIC: pEC50

These recorded examples may help you get a feel for the data.
1. Cn1cc(-c2ccc(Cc3cc(C(=O)NC4CC(F)C4)nc4sccc34)cn2)cn1 (stereo not shown); 6.03
2. Cn1ccc2c(Cc3ccc(-c4cscn4)cc3)cc(C(=O)NC3COC3)nc21; 5.91

(a) Cn1ccc2c(Cc3ccc(-c4nccs4)cc3)cc(C(=O)N[C@H]3CC[C@@H]3O)nc21
(b) Cn1cc(-c2ccc(Cc3cc(C(=O)N[C@@H]4CCOC4)nc4sccc34)cn2)cn1
Qu. # compare pEC50 for a vs b ; return the one with the smaller value Lab note: record the label of whichever item you select.
Ans. a
(a: 5.82, b: 6.26)

----------
Biological target: human mAChR M1 (Homo sapiens)
Construct: host or cells: CHO-K1
Sequence (P11229 1-460): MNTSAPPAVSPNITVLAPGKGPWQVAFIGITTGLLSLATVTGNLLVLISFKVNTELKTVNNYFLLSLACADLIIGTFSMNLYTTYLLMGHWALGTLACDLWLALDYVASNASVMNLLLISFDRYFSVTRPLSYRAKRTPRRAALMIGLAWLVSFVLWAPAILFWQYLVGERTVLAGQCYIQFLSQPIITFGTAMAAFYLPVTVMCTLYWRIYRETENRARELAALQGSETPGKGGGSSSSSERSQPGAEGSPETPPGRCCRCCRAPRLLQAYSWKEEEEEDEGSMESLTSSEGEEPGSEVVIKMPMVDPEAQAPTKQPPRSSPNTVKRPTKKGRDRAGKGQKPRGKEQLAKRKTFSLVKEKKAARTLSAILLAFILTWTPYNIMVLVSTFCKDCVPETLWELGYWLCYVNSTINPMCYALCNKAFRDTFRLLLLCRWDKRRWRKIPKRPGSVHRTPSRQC
Experiment: mAChR M1 cell-based functional assay (calcium mobilization, Fluo-4, FDSS)
Settings: CHO-K1 cells stably expressing hM1; EC20 acetylcholine response; read-out: Human M1 Emax
REPORTED_METRIC: Emax (%)

The examples below pair each entry with its known result.
1. Cn1ccc(-c2ccc(Cc3cc(C(=O)N[C@H]4CCOC[C@@H]4O)nc4c3ccn4C)cc2)n1 [Compound 37]; 76.7
2. Cn1cc(-c2ccc(Cc3cc(C(=O)NC4CCOC(C)(C)C4)nc4sccc34)cn2)cn1 (centres unmarked) [Compound 115]; 59.7
3. CCn1ccc2c(Cc3ccc(-n4cccn4)cc3)cc(C(=O)N[C@H]3CCCC[C@@H]3O)nc21 [Compound 10]; 69.9
4. Cc1nc(-c2ccc(Cc3cc(C(=O)NCC4CCOC4)nc4sccc34)cc2)co1 (centres unmarked) [Compound 138]; 59.5

(A) Cn1ccc(-c2ccc(Cc3cc(C(=O)NC4CCOC(C)(C)C4)nc4sccc34)cn2)n1 (centres unmarked) [Compound 103]
(B) Cn1ccc2c(Cc3ccc(-c4cscn4)cc3)cc(C(=O)NC3COC3)nc21 [Compound 35]
(C) Cn1cc(-c2ccc(Cc3cc(C(=O)NC4CC5(COC5)C4)nc4c3ccn4C)cn2)cn1 [Compound 48]
Qu. Sort ascending by Emax. Please reply with the labels ordered as requested. Many thanks.
Ans. B, A, C
(B: 40.2%, A: 60.5%, C: 87.1%)

----------
Biological target: human mAChR M1 (Homo sapiens)
Construct: host or cells: CHO-K1
Assay: mAChR M1 cell-based functional assay (calcium mobilization, Fluo-4, FDSS)
Conditions: CHO-K1 cells stably expressing hM1; EC20 acetylcholine response; read-out: Human M1 Emax
REPORTED_METRIC: Emax (%)

1) Cn1ncc2c(Cc3ccc(-n4cccn4)cc3)cc(C(=O)N[C@H]3CCCC[C@@H]3O)nc21 [Compound 8]; 86.6
2) Cn1ccc2c(Cc3ccc(-c4nccs4)cc3)cc(C(=O)N[C@H]3CCOC[C@@H]3O)nc21 [Compound 59]; 57.3
3) CCn1ccc2c(Cc3ccc(-n4cccn4)cc3)cc(C(=O)N[C@H]3CCC[C@@H]3O)nc21 [Compound 14]; 69.4
4) Cn1ccc2c(Cc3ccc(-c4nccs4)cc3)cc(C(=O)NC3CC4(COC4)C3)nc21 [Compound 62]; 60.6
5) O=C(NC1CC(F)(F)C1)c1cc(Cc2ccc(-n3cccn3)cc2)c2ccsc2n1 [Compound 83]; 74.8
6) CC1CC(NC(=O)c2cc(Cc3ccc(-n4cccn4)cc3)c3ccsc3n2)CC(C)O1 (centres unmarked) [Compound 73]; 68.1
7) Cn1ccc(-c2ccc(Cc3cc(C(=O)NC4CC5(COC5)C4)nc4sccc34)cn2)n1 [Compound 109]; 56.8
8) Cn1ccc2c(Cc3ccc(-n4cccn4)cc3)cc(C(=O)NC3CCOCC3)nc21 [Compound 18]; 73.1

(P) COCCNC(=O)c1cc(Cc2ccc(-c3ccn(C)n3)nc2)c2ccsc2n1 [Compound 111]
(Q) Cc1nc(-c2ccc(Cc3cc(C(=O)NC4CCOC(C)(C)C4)nc4sccc34)cc2)co1 (centres unmarked) [Compound 131]
Qu. Of P and Q , whose reported Emax is the larger number? Write down the label attached to your selection.
Ans. P
(P: 63.2%, Q: 33.3%)

----------
Target: human mAChR M1 (Homo sapiens, UniProt P11229)
Assay: mAChR M1 cell-based functional assay (calcium mobilization, Fluo-4, FDSS)
Details: CHO-K1 cells stably expressing hM1; positive allosteric modulator activity as increase in the EC20 acetylcholine response
REPORTED_METRIC: EC50 (nM)

1) CC1COCCC1NC(=O)c1cc(Cc2ccc(-c3ccn(C)n3)nc2)c2ccsc2n1 (stereo not shown); 110
2) Cn1ccc(-c2ccc(Cc3cc(C(=O)NC4CCOCC4(C)C)nc4sccc34)cn2)n1 (stereo not shown); 370
3) Cn1cc(-c2ccc(Cc3cc(C(=O)NC4CC5(COC5)C4)nc4sccc34)cn2)cn1; 100
4) Cn1ncc2c(Cc3ccc(-c4cscn4)cc3)cc(C(=O)N[C@H]3CC[C@@H]3O)nc21; 3830
5) COCC(C)NC(=O)c1cc(Cc2ccc(-c3ccn(C)n3)cc2)c2ccsc2n1 (stereo not shown); 480

(a) Cn1ccc(-c2ccc(Cc3cc(C(=O)NC4CC5(COC5)C4)nc4c3ccn4C)cn2)n1
(b) CC(NC(=O)c1cc(Cc2ccc(-c3ccn(C)n3)nc2)c2ccn(C)c2n1)C1CCCO1 (stereo not shown)
Qu. Kindly compare a with b and tell me which has the lower EC50 figure. Answer = label.
Ans. a
(a: 370 nM, b: 1270 nM)

----------
Molecular target: UniProtKB P11229
Sequence (P11229 1-460): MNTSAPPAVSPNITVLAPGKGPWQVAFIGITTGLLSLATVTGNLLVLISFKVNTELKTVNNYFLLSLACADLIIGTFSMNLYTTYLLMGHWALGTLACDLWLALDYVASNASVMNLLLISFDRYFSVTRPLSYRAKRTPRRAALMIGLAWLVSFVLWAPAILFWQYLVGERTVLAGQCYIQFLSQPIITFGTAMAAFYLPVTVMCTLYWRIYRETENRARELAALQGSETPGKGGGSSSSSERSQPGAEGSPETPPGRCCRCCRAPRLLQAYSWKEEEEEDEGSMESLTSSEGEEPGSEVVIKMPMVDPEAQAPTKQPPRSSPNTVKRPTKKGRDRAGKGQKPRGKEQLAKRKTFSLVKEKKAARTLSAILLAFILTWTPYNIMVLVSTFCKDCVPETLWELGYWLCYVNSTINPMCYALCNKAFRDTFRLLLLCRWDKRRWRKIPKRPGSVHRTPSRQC
Test: mAChR M1 cell-based functional assay (calcium mobilization, Fluo-4, FDSS)
Details: CHO-K1 cells stably expressing hM1; positive allosteric modulator activity as increase in the EC20 acetylcholine response
REPORTED_METRIC: EC50 (nM)

Here are 3 compounds together with their reported answers.
1. Cn1ccc(-c2ccc(Cc3cc(C(=O)N[C@H]4CCOC[C@@H]4O)nc4c3ccn4C)cc2)n1; 60
2. Cn1cc(-c2ccc(Cc3cc(C(=O)NCC4CCOC4)nc4sccc34)cn2)cn1 (centres unmarked); 700
3. COCC(C)NC(=O)c1cc(Cc2ccc(-c3coc(C)n3)cc2)c2ccsc2n1 (centres unmarked); 950

(A) Cn1ncc2c(Cc3ccc(-n4cccn4)cc3)cc(C(=O)N[C@H]3CCOC[C@@H]3O)nc21
(B) Cn1ccc(-c2ccc(Cc3cc(C(=O)N[C@H]4CCOC[C@@H]4O)nc4sccc34)cc2)n1
(C) Cn1ccc(-c2ccc(Cc3cc(C(=O)NC[C@@H]4CCCO4)nc4c3ccn4C)cn2)n1
Qu. Sort the 3 compounds by EC50; largest first, smallest last. Return value: ordered labels per request.
Ans. C, A, B

(A) Cn1cc(-c2ccc(Cc3cc(C(=O)NC4CC(F)(F)C4)nc4sccc34)cn2)cn1
(B) Cn1ncc2c(Cc3ccc(-c4cscn4)cc3)cc(C(=O)NC3CC4(COC4)C3)nc21
Qu. A or B : whose EC50 is greater? Bench note: the answer is the label of the chosen record.
Ans. B
